target: Vitamin D3 receptor (Homo sapiens) (UniProt P11473); assay: Inhibitors of the vitamin D receptor (VDR): qHTS; conditions: VDR-SRC2-3 peptide fluorescence polarization, 2 h; also: potency is read from the fitted curve at half-maximal effect
Sequence (P11473 whole entry, looked up): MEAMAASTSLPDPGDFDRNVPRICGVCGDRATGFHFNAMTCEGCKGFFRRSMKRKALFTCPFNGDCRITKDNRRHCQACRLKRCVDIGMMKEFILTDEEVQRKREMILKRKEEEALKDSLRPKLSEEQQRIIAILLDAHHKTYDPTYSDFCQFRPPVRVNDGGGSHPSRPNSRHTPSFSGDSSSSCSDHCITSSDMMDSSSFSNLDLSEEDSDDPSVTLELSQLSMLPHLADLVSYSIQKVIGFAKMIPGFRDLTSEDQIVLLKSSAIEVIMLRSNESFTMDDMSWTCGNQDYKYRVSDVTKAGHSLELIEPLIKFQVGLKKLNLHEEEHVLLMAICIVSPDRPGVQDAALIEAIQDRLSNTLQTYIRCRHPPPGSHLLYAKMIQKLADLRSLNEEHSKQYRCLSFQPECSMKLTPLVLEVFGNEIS
About 3,700 (0.93%) of roughly 400,000 compounds were called active. Roughly 3% stayed inconclusive and do not appear here. For the sample, actives were picked, then their nearest neighbours and some compounds at random.
result.type: Potency

{"compound.string": "CCOC(=O)C1(CCOC)CCN(Cc2cc3ccccc3s2)CC1", "Potency": "44.7 µM (active)"}
{"compound.string": "O=C(Nc1ccccc1-c1ccccc1)c1cccs1", "Potency": "70.8 µM (active)"}
{"compound.string": "CC1CCN(C(=S)c2ccc(-c3ccc(Cl)cc3Cl)o2)CC1", "Potency": "79.4 µM (active)"}
{"compound.string": "N#Cc1ccccc1-n1c(N)c(C(=O)N2CCCC2)sc1=S", "Potency": "50.1 µM (active)"}
{"compound.string": "O=C(c1ccco1)N1CCC[C@@]2(CCN(c3ccccc3)C2)C1", "Potency": "44.7 µM (active)"}

Q) // query Potency value for entry O=C(c1csnn1)N1CCC[C@@]2(CCN(c3cccc(-c4ccccc4)c3)C2)C1
A) 44.7 µM (active)
